Consider the following compounds; for each one, report its IC50.
- target entity: Polyadenylate-binding protein 1 (Homo sapiens, UniProt P11940)
- Sequence (P11940 whole entry): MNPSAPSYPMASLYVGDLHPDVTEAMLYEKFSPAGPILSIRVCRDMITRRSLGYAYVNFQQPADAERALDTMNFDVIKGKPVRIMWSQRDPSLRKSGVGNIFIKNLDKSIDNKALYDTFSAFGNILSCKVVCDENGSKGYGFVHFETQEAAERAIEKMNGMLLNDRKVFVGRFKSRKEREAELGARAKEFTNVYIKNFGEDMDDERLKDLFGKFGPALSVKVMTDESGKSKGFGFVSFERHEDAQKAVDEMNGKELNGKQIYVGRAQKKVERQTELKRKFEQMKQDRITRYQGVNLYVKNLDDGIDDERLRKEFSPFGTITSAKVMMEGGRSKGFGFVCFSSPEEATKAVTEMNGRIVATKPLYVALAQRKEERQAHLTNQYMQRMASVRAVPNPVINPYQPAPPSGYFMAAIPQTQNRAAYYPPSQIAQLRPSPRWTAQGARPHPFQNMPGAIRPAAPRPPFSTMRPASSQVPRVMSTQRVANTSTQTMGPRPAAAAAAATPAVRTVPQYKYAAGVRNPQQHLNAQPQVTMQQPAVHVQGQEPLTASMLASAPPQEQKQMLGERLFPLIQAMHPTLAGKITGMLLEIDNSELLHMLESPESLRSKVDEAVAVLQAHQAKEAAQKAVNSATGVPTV
- experiment notes: PABP1 MLLE–PAM2 binding inhibitor potency, dose response, biochemical, fluorescence polarization, FITC-PAM2 peptide (AID 602259)
- Format: functional
- stated conditions: read-out: IC50_Mean
Active and inactive are the calls of the source.

For every item in the list below, what is its measured IC50?
1. O=C(NC(=S)Nc1ccc(S(=O)(=O)Nc2nccs2)cc1)c1ccccc1
2. Cc1cc(O)cc(O)c1/C=N/NC(=O)c1ccc2c(c1)OCCO2
3. CC(C)c1ccc(N2C(=O)CC(Sc3ncccn3)C2=O)cc1 (configuration not stated)
4. CCOC(=O)c1c2ccc(OCC(=O)NN)cc2n2ccccc12
5. CCCCN(C(=S)NC(=O)c1ccccc1)c1c(N)n(Cc2ccccc2)c(=O)[nH]c1=O
6. Cc1sc(NC(=S)Nc2ccc(F)cc2)c(C(N)=O)c1C
7. Cc1onc(-c2ccccc2)c1C(=O)NC(=S)NNC(=O)c1ccncc1

1. > 66 µM (inactive)
2. 30.8 µM (inactive)
3. > 66 µM (inactive)
4. 33.6 µM (inactive)
5. > 66 µM (inactive)
6. > 66 µM (inactive)
7. > 66 µM (inactive)

For every item in the list below, what is its measured IC50?
1. NS(=O)(=O)c1ccc(NC(S)=Nc2ccc(S(=O)(=O)N3CCCC3)cc2)cc1
2. Cc1ccc(Cl)cc1N1C(=O)CC(Sc2ncccn2)C1=O (configuration not stated)
3. Cc1ccc(-c2nc3cnccn3c2Nc2c(C)cccc2C)o1
4. COc1ccc(N2C(=O)CC(SCCc3nc4ccccc4[nH]3)C2=O)cc1 (configuration not stated)
5. O=C(O)c1ccc(Cl)c(NC(=S)NC(=O)c2ccccc2[N+](=O)[O-])c1

1. > 66 µM (inactive)
2. > 66 µM (inactive)
3. > 66 µM (inactive)
4. > 66 µM (inactive)
5. > 66 µM (inactive)

====

- target entity: DNA repair protein RAD52 homolog (Homo sapiens, UniProt P43351)
- Sequence (P43351 whole entry): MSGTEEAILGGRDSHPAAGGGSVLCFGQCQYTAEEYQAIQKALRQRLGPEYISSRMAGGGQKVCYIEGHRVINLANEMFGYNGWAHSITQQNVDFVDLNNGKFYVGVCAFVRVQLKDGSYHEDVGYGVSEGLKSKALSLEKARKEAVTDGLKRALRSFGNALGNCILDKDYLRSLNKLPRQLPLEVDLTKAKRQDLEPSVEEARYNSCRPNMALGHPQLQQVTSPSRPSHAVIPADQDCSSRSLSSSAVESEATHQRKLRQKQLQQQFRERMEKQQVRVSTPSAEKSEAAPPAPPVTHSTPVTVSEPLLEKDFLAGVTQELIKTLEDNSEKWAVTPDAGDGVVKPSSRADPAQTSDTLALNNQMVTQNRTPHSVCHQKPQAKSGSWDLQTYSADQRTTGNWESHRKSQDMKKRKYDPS
- Assay type: functional, biochemical
Where a name gives a salt, the structure may show the parent alone. The source made the active and inactive calls.
Consider the following compounds; for each one, report its AC50.

[
  {
    "compound": "NCc1cc2c3c(c1)CCCN3CCC2",
    "test value": "1.92 µM (active)"
  },
  {
    "compound": "CCCCOc1cc(C(=O)OCCN(CC)CC)ccc1N [BENOXINATE HYDROCHLORIDE]",
    "test value": "33.9 µM (active)"
  },
  {
    "compound": "CCN(CC)CCCNC(=O)c1csc(Nc2cccc3ccccc23)n1",
    "test value": "21.9 µM (active)"
  }
]

For every item in the list below, what is its measured AC50?
1. CCC(C)(C)c1ccc(OCCCC[n+]2cccc(C)c2C)c(C(C)(C)CC)c1
2. COc1ccccc1N(Cc1ccccc1)S(=O)(=O)c1cccc(C(=O)NC2CC(C)(C)NC(C)(C)C2)c1

["31.2 µM (active)", "13.4 µM (active)"]

AC50 in this record for "N=C(N)N/N=C/c1ccc(OCc2ccccc2Cl)cc1" : 16.6 µM (active)

====

- experiment notes: Luminescence Cell-Based Dose Response HTS to Identify Inhibitors of 5'UTR Stem-Loop Driven Prion Protein mRNA Translation in H4 Neuroglioblastoma Cells. [Related pubchem assays: 1827 (Project Summary), 1813 (Primary HTS)]
- Assay type: functional
The source made the active and inactive calls.
Consider the following compounds; for each one, report its EC50.

[
  {
    "molecule smiles": "CSc1nc(N(C)NC(=O)c2cccc(C)c2)c2ccccc2n1",
    "readout": "EC50",
    "test value": "< 0.1 µM (active)"
  },
  {
    "molecule smiles": "O=[N+]([O-])c1cc(/C=N/Nc2nc3ccccc3[nH]2)c(O)cc1O",
    "readout": "EC50",
    "test value": "11.2 µM (active)"
  }
]

For every item in the list below, what is its measured EC50?
1. Cc1ccc(CS(=O)(=O)c2ncc(Cl)c(C(=O)Nc3ccc(OC(F)F)cc3)n2)cc1
2. COc1ccc(N2CCCC2)c(NC(=O)COc2ccccc2Cl)c1

["12.7 µM (active)", "> 120 µM (not active)"]

EC50 in this record for "CN(C)CCN(C(=O)/C=C/c1cccs1)c1nc2c(F)cc(F)cc2s1" : 10.4 µM (active)

====

- target entity: FAD-linked sulfhydryl oxidase ALR (Homo sapiens, UniProt P55789)
- Sequence (P55789 whole entry): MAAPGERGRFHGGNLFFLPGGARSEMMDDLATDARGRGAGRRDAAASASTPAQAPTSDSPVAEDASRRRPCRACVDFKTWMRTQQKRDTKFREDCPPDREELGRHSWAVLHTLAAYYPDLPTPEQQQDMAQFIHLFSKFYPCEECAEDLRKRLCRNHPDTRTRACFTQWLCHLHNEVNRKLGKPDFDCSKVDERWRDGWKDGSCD
- experiment notes: inhibitors of human ALR sulfhydryl oxidase, dose response, biochemical, H2O2 detection, luminescence, cherry-pick (AID 493248)
Active and inactive are the calls of the source.
Consider the following compounds; for each one, report its AC50.

[
  {
    "compound": "Cc1ccc(S(=O)(=O)c2ccc([N+](=O)[O-])cn2)cc1",
    "test value": "15.3 µM (active)"
  },
  {
    "compound": "COC(=O)c1c(C(=O)OC)c(-c2ccc(F)cc2)n2c1CSC2",
    "test value": "0.218 µM (active)"
  },
  {
    "compound": "CN1c2ccc(C=O)c3c(C=O)ccc(c23)N(C)C1(C)C",
    "test value": "1.54 µM (active)"
  },
  {
    "compound": "NC(=O)Nc1ccc(Nc2ccccc2)cc1",
    "test value": "0.916 µM (active)"
  },
  {
    "compound": "COc1ccc(N2CCN(c3ccc(C(=O)O)cc3[N+](=O)[O-])CC2)cc1",
    "test value": "5.03 µM (active)"
  }
]

For every item in the list below, what is its measured AC50?
1. CN(C)c1ccc(CN(C(=O)c2ccccc2Br)C2CCS(=O)(=O)C2)cc1 (stereo not given)
2. OCc1ccc(-c2nn(Cc3ccccc3)c3ccccc23)o1
3. CCC(C)Nc1nc2c(c(=O)n(C)c(=O)n2C)n1Cc1ccc(F)cc1 (stereo not given)
4. CCCC(=O)Nc1ccc(-c2csc(NNC(C)=O)n2)cc1
5. CN(C)c1ccc(/C(=N\O)c2ccccc2)cc1

1.88 µM (active)
10 µM (active)
2.09 µM (active)
0.859 µM (active)
1.64 µM (active)

====

- target entity: CAAX prenyl protease 2 (Saccharomyces cerevisiae S288c)
- Sequence (Q03530 whole entry): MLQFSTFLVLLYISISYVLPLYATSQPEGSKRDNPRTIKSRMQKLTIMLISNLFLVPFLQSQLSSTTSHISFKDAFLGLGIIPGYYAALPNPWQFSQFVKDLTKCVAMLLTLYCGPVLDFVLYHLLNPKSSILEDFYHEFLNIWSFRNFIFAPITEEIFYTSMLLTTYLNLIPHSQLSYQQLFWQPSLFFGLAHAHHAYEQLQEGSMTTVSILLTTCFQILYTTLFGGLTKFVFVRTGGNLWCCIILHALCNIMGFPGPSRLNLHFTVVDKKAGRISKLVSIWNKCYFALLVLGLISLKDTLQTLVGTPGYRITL
- Assay type: biochemical
Calls of active or inactive are those of the source.
readout: AC50

[
  {
    "molecule smiles": "COc1ccc(OC)c(Cc2nnc(CCC(=O)N3CCN(C4CCCC4)CC3)o2)c1",
    "AC50": "7.48 µM (active)"
  },
  {
    "molecule smiles": "CCC(C)(C)c1ccc(OCCCC[n+]2cccc(C)c2C)c(C(C)(C)CC)c1",
    "AC50": "8.03 µM (active)"
  },
  {
    "molecule smiles": "CN1c2ccc(C=O)c3c(C=O)ccc(c23)N(C)C1(C)C",
    "AC50": "10.5 µM (active)"
  }
]

// next entry
AC50 in this record for "CN1C(=O)/C(=C/c2cccc(Cl)c2)Sc2ccc(C(=O)N3CCOCC3)cc21" : 5.96 µM (active)

====

Consider the following molecules; for each one, report its EC50.
- System: Streptococcus sp. 'group A'
- experiment notes: growth inhibition of control SK(-) GAS strain, dose response, counter-screen for streptokinase expression inhibitor project, luminescence, kanamycin, BacTiterGlo, confirmation (AID 1900)
- Type: functional, organism-based
The source made the active and inactive calls.

Sample answers from the record:
[
  {
    "molecule": "COc1ccc(/C=N/Nc2cc(C)nc(-n3nc(C)cc3C)n2)c(OC)c1",
    "target entity": "Streptococcus sp. 'group A'",
    "test value": "9.67 µM (active)"
  },
  {
    "molecule": "O=[N+]([O-])c1cc(Cl)c(O)c2ncccc12",
    "target entity": "Streptococcus sp. 'group A'",
    "test value": "1.33 µM (active)"
  },
  {
    "molecule": "N=C1S/C(=C\\c2cn[nH]c2-c2ccc(F)cc2)C(=O)N1c1ccccc1F",
    "target entity": "Streptococcus sp. 'group A'",
    "test value": "4.49 µM (active)"
  },
  {
    "molecule": "Cc1n[nH]c(C)c1CCCOc1ccccc1",
    "target entity": "Streptococcus sp. 'group A'",
    "test value": "> 150 µM (not active)"
  },
  {
    "molecule": "O=C(Nc1nc(-c2ccccn2)cs1)c1ccc(S(=O)(=O)N2CCCCC2)cc1",
    "target entity": "Streptococcus sp. 'group A'",
    "test value": "0.879 µM (active)"
  },
  {
    "molecule": "COc1cc([N+](=O)[O-])cc(/C=N\\NC(=O)C2COc3ccccc3O2)c1O (configuration not stated)",
    "target entity": "Streptococcus sp. 'group A'",
    "test value": "2.97 µM (active)"
  }
]

// next entry
# "CCCCn1c(-c2ccco2)nc2oc3ccccc3c(=O)c2c1=O" with Streptococcus sp. 'group A': EC50 is 64 µM (active)

// provenance: ChEMBL document CHEMBL1201862
